# Test system: SR cells
# experiment.description: Half inhibitory concentration (IC50) on ALK-positive SR cell proliferation (CCK-8)
# Format: cell-based
# condition.label: Homo sapiens; SR cells, 72 h drug treatment, CCK-8; read-out: IC50 (nM)/ SR cell line

compound	IC50
COc1cc(N2CCC(N3CCN(C(=O)CCCCSc4cccc5c4CN(C4CCC(=O)NC4=O)C5=O)CC3)CC2)ccc1Nc1ncc(Cl)c(Nc2ccccc2P(C)(C)=O)n1 (stereo not shown) [SIAIS219070]	0.5 nM
COc1cc(N2CCC(N3CCN(C)CC3)CC2)ccc1Nc1ncc(Cl)c(Nc2ccccc2P(C)(C)=O)n1 [Brigatinib, reference compound]	2.1 nM
CCc1cc2c(cc1N1CCC(N3CCN(C(=O)COCCOCCOCCSc4cccc5c4CN(C4CCC(=O)NC4=O)C5=O)CC3)CC1)C(C)(C)c1[nH]c3cc(C#N)ccc3c1C2=O (stereo not shown) [SIAIS249068]	0.33 nM
CCc1cc2c(cc1N1CCC(N3CCN(C(=O)CCSc4cccc5c4CN(C4CCC(=O)NC4=O)C5=O)CC3)CC1)C(C)(C)c1[nH]c3cc(C#N)ccc3c1C2=O (stereo not shown) [SIAIS262097]	3.89 nM
COc1cc(N2CCC(N3CCN(C(=O)CCCCCSc4cccc5c4CN(C4CCC(=O)NC4=O)C5=O)CC3)CC2)ccc1Nc1ncc(Cl)c(Nc2ccccc2P(C)(C)=O)n1 (stereo not shown) [SIAIS219071]	0.6 nM
CCc1cc2c(cc1N1CCC(N3CCN(C(=O)CCCSc4cccc5c4C(=O)N(C4CCC(=O)NC4=O)C5=O)CC3)CC1)C(C)(C)c1[nH]c3cc(C#N)ccc3c1C2=O (stereo not shown) [SIAIS219006]	16.4 nM
COc1cc(N2CCC(N3CCN(C(=O)CCSc4cccc5c4CN(C4CCC(=O)NC4=O)C5=O)CC3)CC2)ccc1Nc1ncc(Cl)c(Nc2ccccc2P(C)(C)=O)n1 (stereo not shown) [SIAIS219068]	1.7 nM

Just for reference, patent US12226424B2 is where these values come from.
